Provide the reported SI (selectivity index, ratio of IC50 MAO-A to MAO-B) of each item.
Target: MAO-B (Homo sapiens, UniProt P27338)
Construct: purchased Sigma-Aldrich
Sequence (P27338 whole entry): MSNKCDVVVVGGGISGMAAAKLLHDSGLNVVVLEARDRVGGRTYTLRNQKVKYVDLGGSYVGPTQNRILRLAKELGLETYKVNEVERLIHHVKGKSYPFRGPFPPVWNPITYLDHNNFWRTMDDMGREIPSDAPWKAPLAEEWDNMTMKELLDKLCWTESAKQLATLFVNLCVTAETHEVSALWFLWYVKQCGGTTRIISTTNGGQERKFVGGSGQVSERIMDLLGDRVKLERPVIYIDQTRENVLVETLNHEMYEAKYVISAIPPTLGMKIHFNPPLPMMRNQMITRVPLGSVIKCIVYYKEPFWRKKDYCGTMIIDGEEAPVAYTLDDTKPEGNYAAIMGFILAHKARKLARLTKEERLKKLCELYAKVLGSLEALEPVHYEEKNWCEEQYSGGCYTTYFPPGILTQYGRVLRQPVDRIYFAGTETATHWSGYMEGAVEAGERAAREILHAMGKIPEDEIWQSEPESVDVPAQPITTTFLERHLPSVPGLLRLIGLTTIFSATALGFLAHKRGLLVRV
Assay: biochemical
Conditions: MAO-A vs. MAO-B IC50 ratio
Answers are plain numbers.

Endpoint output: SI (selectivity index, ratio of IC50 MAO-A to MAO-B) of O=C(/C=C/c1ccc(ON=C(c2ccccc2)c2ccccc2)cc1)c1ccc(F)cc1 . Value?
392.9

Also check COc1cccc(C(=O)/C=C/c2ccc(O/N=C(\C)c3cccc4ccccc34)cc2)c1
182.9

Cool, now COc1cccc(/C=C/C(=O)c2ccc(O/N=C(\C)c3cccs3)cc2)c1
6.8

Provide the reported SI (selectivity index, ratio of IC50 MAO-A to MAO-B) of each entry below, same order.
1. O=C(/C=C/c1ccc(ON=C2CCCCC2)cc1)c1ccc(F)cc1
2. COc1ccc(C(/C=C/c2ccccc2)=N\Oc2ccc(/C=C/C(=O)c3ccc(C)cc3)cc2)cc1
3. C/C(=N\Oc1ccc(/C=C/C(=O)c2cccc3ccccc23)cc1)c1cccs1

222.2
441.7
20.6

May I ask what SI (selectivity index, ratio of IC50 MAO-A to MAO-B) has been recorded for COc1ccc(C(=O)/C=C/c2ccc(O/N=C3\CCc4ccccc43)cc2)cc1 ?
32.7

###

Could you please report measured IC50 for the items listed next?
Target: recombinant hMAO-A (Homo sapiens, UniProt P21397)
Construct: purchased Sigma-Aldrich
Sequence (P21397 1-527): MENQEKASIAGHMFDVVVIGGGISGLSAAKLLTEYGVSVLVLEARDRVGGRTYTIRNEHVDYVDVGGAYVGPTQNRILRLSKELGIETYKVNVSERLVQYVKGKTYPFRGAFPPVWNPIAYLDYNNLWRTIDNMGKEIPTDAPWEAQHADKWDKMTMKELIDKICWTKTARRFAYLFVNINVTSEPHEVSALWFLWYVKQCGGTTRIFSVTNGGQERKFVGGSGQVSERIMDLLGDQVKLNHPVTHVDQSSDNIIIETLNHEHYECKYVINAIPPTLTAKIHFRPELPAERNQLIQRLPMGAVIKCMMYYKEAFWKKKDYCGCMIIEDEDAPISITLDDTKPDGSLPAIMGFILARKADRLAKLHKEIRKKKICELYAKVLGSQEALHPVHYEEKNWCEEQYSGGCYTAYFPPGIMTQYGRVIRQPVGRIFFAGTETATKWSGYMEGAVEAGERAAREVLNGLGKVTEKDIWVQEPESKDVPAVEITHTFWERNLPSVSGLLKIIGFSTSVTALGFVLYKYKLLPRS
Experiment: MAO-A inhibition assay (kynuramine substrate)
Format: biochemical
Conditions: mean ± standard error of duplicates; reference compounds after 30 min preincubation with enzyme
Answers are plain numbers, in µM.

Consider the reported IC50 for these compounds:
# IC50 lookup, item O=C(/C=C/c1ccc(ON=C(c2ccccc2)c2ccccc2)cc1)c1ccc(F)cc1 [COE-7]
11

Now try COc1ccc(C(=O)/C=C/c2ccc(O/N=C3\CCc4ccccc43)cc2)cc1 [COE-4] .
19.3

Continuing:
Request the reported IC50 associated with C/C(=N\Oc1ccc(/C=C/C(=O)c2cccc3ccccc23)cc1)c1cccs1 [COE-9]
7.64

###

Molecular target: AChE (Type VI-S from Electrophorus electricus) (Electrophorus electricus, UniProt O42275)
Sequence (O42275 24-633): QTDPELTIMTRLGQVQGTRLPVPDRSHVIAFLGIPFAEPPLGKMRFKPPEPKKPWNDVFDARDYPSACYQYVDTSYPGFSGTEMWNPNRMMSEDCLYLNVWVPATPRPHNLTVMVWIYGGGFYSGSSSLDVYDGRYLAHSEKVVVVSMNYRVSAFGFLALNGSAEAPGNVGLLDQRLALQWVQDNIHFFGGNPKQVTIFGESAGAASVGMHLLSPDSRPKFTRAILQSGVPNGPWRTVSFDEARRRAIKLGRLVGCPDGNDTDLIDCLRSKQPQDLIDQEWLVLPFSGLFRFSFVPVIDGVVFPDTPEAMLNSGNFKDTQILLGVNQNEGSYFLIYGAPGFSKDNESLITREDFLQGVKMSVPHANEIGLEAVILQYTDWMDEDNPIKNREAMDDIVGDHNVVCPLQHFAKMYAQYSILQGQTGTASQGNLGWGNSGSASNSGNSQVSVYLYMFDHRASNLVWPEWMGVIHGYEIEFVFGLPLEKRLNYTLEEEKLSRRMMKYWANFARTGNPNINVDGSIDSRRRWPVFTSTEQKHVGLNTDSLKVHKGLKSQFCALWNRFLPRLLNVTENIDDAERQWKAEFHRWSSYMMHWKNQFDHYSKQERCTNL
Endpoint Name: IC50 (µM)
Answers are plain numbers, in µM.

Sample answers from the record:
// map COc1ccc(/C=C/C(=O)c2ccc(O/N=C(/C=C/c3ccc(OC)cc3)c3ccc(OC)cc3)cc2)cc1 [COE-23] to recorded IC50 (system: AChE (Type VI-S from Electrophorus electricus) (Electrophorus electricus, UniProt O42275))
9.16

Also COc1ccc(/C=C/C(=N/Oc2ccc(/C=C/C(=O)c3ccc(OC)cc3)cc2)c2ccc(OC)cc2)cc1 [COE-20] , if possible.
11.2

Record: COC(=O)c1ccc(O/N=C(/C=C/c2ccc(OC)cc2)c2ccc(OC)cc2)cc1 [COE-18]
10.6

// next record COc1ccc(C(=O)/C=C/c2ccc(O/N=C(\C)c3ccc(OC)cc3)cc2)cc1 [COE-2]
15.2

Batch: IC50 for all items listed.
1. COc1ccc(C(/C=C/c2ccccc2)=N\Oc2ccc(/C=C/C(=O)c3ccc(C)cc3)cc2)cc1 [COE-21]
2. COc1ccc(/C=C/C(=O)c2ccc(O/N=C(\C)c3cccc4ccccc34)cc2)cc1OC [COE-14]
3. C/C(=N\Oc1ccc(/C=C/C(=O)c2ccccc2)cc1)c1ccc(F)cc1 [COE-5]
4. COc1ccc(/C=C/C(=N/Oc2ccc(/C=C/C(=O)c3ccccc3)cc2)c2ccc(OC)cc2)cc1 [COE-19]
5. C/C(=N\Oc1ccc(/C=C/C(=O)c2cccc3ccccc23)cc1)c1cccs1 [COE-9]
6. COc1ccc(/C=C/C(=O)c2ccc(ON=C3CCCCC3)cc2)cc1 [COE-10]

1: 9.65; 2: 13.2; 3: 7.06; 4: 5.35; 5: 8.39; 6: 9.42

###

Target: recombinant hMAO-A (Homo sapiens)
Construct: purchased Sigma-Aldrich
Test: MAO-A inhibition assay (kynuramine substrate)
Format: biochemical
Conditions: compound at 1.0 µM; mean ± standard error of duplicate experiments; read-out: Residual Activity (%) MAO-A (1.0 µM)
Please use t for remaining activity at 1 µM under 90% and f for everything else, ties included.

Find out if reported remaining activity at 1 µM for COc1ccc(/C=C/C(=O)c2ccc(O/N=C(/C=C/c3ccc(OC)cc3)c3ccc(OC)cc3)cc2)cc1 [COE-23] is less than 90%
t

For COc1ccc(C(/C=C/c2ccccc2)=N\Oc2ccc(/C=C/C(=O)c3ccc(C)cc3)cc2)cc1 [COE-21] then?
t

Next molecule: COc1ccc(C(=O)/C=C/c2ccc(O/N=C(\C)c3ccccc3)cc2)cc1 [COE-1]
f

Now let's try a different one.
I'd appreciate it if you could check whether COc1ccc(/C=C/C(=N/Oc2ccc(C(C)=O)cc2)c2ccc(OC)cc2)cc1 [COE-17] has remaining activity at 1 µM smaller than 90%.
t

###

Target: recombinant hMAO-A (Homo sapiens, UniProt P21397)
Construct: purchased Sigma-Aldrich
Assay: MAO-A inhibition assay (kynuramine substrate)
Assay type: biochemical
Settings: compound at 1.0 µM; mean ± standard error of duplicate experiments; read-out: Residual Activity (%) MAO-A (1.0 µM)
Answer each item with its documented remaining activity at 1 µM.
Give bare numbers, in %.

Recorded remaining activity at 1 µM of O=C(/C=C/c1ccc(ON=C2CCCCC2)cc1)c1ccc(F)cc1 , please.
76.8

For the 5 molecules below, give their remaining activity at 1 µM values.
1. COc1ccc(/C=C/C(=O)c2ccc(ON=C3CCCCC3)cc2)cc1
2. COc1ccc(/C=C/C(=O)c2ccc(O/N=C(\C)c3cccc4ccccc34)cc2)cc1OC
3. COc1ccc(/C=C/C(=N/Oc2ccc(/C=C/C(=O)c3ccc(F)cc3)cc2)c2ccc(OC)cc2)cc1
4. COc1ccc(/C=C/C(=N/Oc2ccc(/C=C/C(=O)c3ccccc3)cc2)c2ccc(OC)cc2)cc1
5. C/C(=N\Oc1ccc(/C=C/C(=O)c2ccccc2)cc1)c1ccc(F)cc1

[67.1, 91.1, 81.8, 85.3, 95.1]

###

Target: AChE (Type VI-S from Electrophorus electricus) (Electrophorus electricus, UniProt O42275)
Construct: purchased Sigma-Aldrich Type VI-S
Test: AChE inhibition assay (DTNB / acetylthiocholine iodide)
Assay type: biochemical
Conditions: compound at 10 µM; mean ± standard error of duplicate experiments; read-out: Residual Activity (%) AChE (10 µM)
Please respond with TRUE when measured remaining activity at 10 µM is strictly beneath 60%, and with FALSE in all other cases.

Consider the worked cases shown below.
Decide: remaining activity at 10 µM of COc1ccc(/C=C/C(=O)c2ccc(ON=C3CCCCC3)cc2)cc1 [COE-10] strictly below 60%?
TRUE

Next compound up: COc1ccc(/C=C/C(=O)c2ccc(O/N=C(/C=C/c3ccc(OC)cc3)c3ccc(OC)cc3)cc2)cc1 [COE-23]
TRUE

# repeat for COc1ccc(C(/C=C/c2ccccc2)=N\Oc2ccc(/C=C/C(=O)c3ccc(C)cc3)cc2)cc1 [COE-21]
TRUE

Item: COc1ccc(C(=O)/C=C/c2ccc(O/N=C(\C)c3ccccc3)cc2)cc1 [COE-1]
FALSE

Here is the next compound: COc1ccc(/C=C/C(=N/Oc2ccc(/C=C/C(=O)c3ccccc3)cc2)c2ccc(OC)cc2)cc1 [COE-19]
TRUE

New cases:
In plain terms, does COc1cccc(/C=C/C(=O)c2ccc(O/N=C(\C)c3cccs3)cc2)c1 [COE-13] come in under 60% for remaining activity at 10 µM?
TRUE

And the next one, COc1ccc(/C=C/C(=O)c2ccc(O/N=C(\C)c3cccc4ccccc34)cc2)cc1OC [COE-14] ?
FALSE

Also need COc1ccc(/C=C/C(=N/Oc2ccc(/C=C/C(=O)c3ccc(F)cc3)cc2)c2ccc(OC)cc2)cc1 [COE-22] , thanks.
TRUE

Input C/C(=N\Oc1ccc(/C=C/C(=O)c2ccccc2)cc1)c1ccc(F)cc1 [COE-5]
TRUE

Now consider COc1cccc(C(=O)/C=C/c2ccc(O/N=C(\C)c3cccc4ccccc34)cc2)c1 [COE-8] and answer again.
FALSE

// same read-out, input: Cc1ccc(/C=C/C(=O)c2ccc(O/N=C3\CCc4ccccc43)cc2)cc1 [COE-12]
FALSE

Now give it for COc1ccc(/C=C/C(=N/Oc2ccc(C(C)=O)cc2)c2ccc(OC)cc2)cc1 [COE-17] too.
FALSE
